Where do these numbers come from? They come from patent US20250186597A1.

- system: T1, human IL-18BP (Homo sapiens, UniProt O95998)
- T1 construct: His
- T1 sequence (O95998 31-194): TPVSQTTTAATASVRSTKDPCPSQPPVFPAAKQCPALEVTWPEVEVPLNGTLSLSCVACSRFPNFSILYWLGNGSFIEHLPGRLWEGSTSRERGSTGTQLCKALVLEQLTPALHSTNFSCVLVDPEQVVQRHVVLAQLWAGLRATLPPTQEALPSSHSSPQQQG
- assay remarks: IL-18BP binding alphaLISA assay (Example 4, used in Example 22B)
- test parameters: IL-18BP AlphaLISA
pKd: −log10 of the molar value.
Below: a set of entries, each annotated with reported pKd.
measure: pKd

molecule: 45 (protein) YFGKLKSKLSVIRNLNDQVLFIDQGNRPLFEDMTDSDCRDNAPRTIFIISMYAAAQPRGMAVTISVKCEKISTLSCENKIISFKEMNPPDNIKDTKSDIIFFQRSVPGHDNKMQFESSSYEGYFLACEKERDLFKLILKKEDELGDRSIMFTVQNED
observed value: < 6.00
//
molecule: SEQ ID NO: 69: IL-18 polypeptide: E6K, V11I, C38A, M51G, K53A, T63A, C76A, C127A (protein) YFGKLKSKLSIIRNLNDQVLFIDQGNRPLFEDMTDSDARDNAPRTIFIISGYADSQPRGMAVAISVKCEKISTLSAENKIISFKEMNPPDNIKDTKSDIIFFQRSVPGHDNKMQFESSSYEGYFLAAEKERDLFKLILKKEDELGDRSIMFTVQNED
observed value: < 5.55
